Cited source: patent US20110086389A1

# system.tested: Kv1.2-1.1-1.2-1.1 (reverse diagonal channel) (Rattus norvegicus, UniProt P10499+P63142)
# Construct: nucleic acids encoding the full-length Kv subunit; inter-subunit linker to next subunit (region from Xenopus beta-globin UTRs); expressed in transfected cells; host or cells: HEK-293 (pIRES2-EGFP vector)
# Sequence (P63142 whole entry): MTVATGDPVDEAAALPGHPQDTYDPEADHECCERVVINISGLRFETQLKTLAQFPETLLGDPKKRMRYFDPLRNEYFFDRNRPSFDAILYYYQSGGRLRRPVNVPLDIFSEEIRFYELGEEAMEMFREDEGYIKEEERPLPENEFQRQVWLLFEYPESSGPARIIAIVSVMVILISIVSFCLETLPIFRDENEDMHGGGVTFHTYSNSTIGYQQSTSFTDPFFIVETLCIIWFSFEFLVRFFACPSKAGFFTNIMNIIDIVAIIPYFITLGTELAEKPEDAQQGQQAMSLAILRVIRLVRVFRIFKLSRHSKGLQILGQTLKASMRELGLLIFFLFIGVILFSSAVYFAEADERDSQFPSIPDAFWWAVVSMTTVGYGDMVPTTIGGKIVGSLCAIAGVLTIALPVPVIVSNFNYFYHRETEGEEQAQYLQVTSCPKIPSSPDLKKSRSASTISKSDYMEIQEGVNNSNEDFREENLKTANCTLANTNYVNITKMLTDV
# Sequence (P10499 whole entry): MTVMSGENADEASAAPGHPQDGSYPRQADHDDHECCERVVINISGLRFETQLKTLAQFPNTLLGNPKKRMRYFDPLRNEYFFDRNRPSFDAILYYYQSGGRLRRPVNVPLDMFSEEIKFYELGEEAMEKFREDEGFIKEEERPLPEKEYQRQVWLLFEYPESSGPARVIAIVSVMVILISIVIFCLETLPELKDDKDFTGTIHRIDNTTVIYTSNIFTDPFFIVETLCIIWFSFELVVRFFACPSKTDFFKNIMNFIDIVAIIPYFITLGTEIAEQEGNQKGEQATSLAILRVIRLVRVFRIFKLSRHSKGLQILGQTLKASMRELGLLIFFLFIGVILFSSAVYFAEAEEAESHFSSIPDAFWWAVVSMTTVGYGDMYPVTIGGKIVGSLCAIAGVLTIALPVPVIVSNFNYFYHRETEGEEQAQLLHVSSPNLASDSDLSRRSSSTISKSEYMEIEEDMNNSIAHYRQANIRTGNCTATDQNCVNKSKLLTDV
# Sequence (P63142 whole entry): as the sequence (P63142 whole entry) above
# Sequence (P10499 whole entry): as the sequence (P10499 whole entry) above
# test.description: Whole-cell voltage-clamp (QPatch) inhibition of K+ current, reverse diagonal channel
# Format: cell-based
# run.conditions: HEK-293 cells, holding −100 mV, depolarised to +60 mV; read-out: IC50 TEA
experimental.readout: IC50

INSERT INTO assay_data (record_smiles, result) VALUES
  ('CC[N+](CC)(CC)CC', '960 µM');

###

# system.tested: Kv1.2-1.2-1.1-1.1 (reverse adjacent channel) (Rattus norvegicus, UniProt P10499+P63142)
# Construct: nucleic acids encoding the full-length Kv subunit; inter-subunit linker to next subunit (region from Xenopus beta-globin UTRs); expressed in transfected cells; host or cells: HEK-293 (pIRES2-EGFP vector)
# test.description: Whole-cell voltage-clamp (QPatch) inhibition of K+ current, reverse adjacent channel
# Type: cell-based
# run.conditions: HEK-293 cells, holding −100 mV, depolarised to +60 mV; read-out: IC50 TEA
pIC50: −log10 of the molar value.
experimental.readout: pIC50

INSERT INTO results (compound, readout_number) VALUES
  ('CC[N+](CC)(CC)CC [TEA, tetraethylammonium]', 2.17);

###

# system.tested: Kv1.1-1.2 dimer-containing channel (Rattus norvegicus, UniProt P10499+P63142)
# Construct: expressed in transfected cells
# test.description: Whole-cell voltage-clamp inhibition of K+ current, dimer-containing channel
# Type: cell-based
# run.conditions: HEK-293 cells; read-out: IC50 TEA
pIC50: −log10 of the molar value.
experimental.readout: pIC50

INSERT INTO assay_data (record_smiles, readout_number) VALUES
  ('CC[N+](CC)(CC)CC', 1.92);
